molecular target: human TLR2 protein, purified extracellular domain (human, UniProt O60603 21-588); assay: fluorescence polarisation
Sequence (O60603 21-588): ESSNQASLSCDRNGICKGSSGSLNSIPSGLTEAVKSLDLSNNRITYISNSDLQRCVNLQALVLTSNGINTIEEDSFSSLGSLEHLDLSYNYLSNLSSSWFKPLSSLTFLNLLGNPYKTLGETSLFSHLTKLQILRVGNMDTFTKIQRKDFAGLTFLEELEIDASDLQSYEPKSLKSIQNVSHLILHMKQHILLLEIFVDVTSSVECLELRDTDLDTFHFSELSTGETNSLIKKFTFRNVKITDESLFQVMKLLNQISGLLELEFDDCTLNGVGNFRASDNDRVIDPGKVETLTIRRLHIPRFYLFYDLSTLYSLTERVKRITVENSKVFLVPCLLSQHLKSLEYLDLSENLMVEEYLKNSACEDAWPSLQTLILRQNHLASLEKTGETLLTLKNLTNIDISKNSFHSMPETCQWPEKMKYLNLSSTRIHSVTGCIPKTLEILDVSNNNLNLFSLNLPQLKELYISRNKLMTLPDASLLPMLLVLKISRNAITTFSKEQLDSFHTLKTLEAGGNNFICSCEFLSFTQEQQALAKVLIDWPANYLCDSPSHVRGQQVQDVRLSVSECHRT
Non-standard residues stand in square brackets, D forms with d. No end group written: not given here. Pam3Cys = Cys carrying the Pam3 acyl chains of Pam3CSK4
measurement_label: Kd (nM)
Just the number in nM, nothing appended.

Kd for [Pam3Cys]SKKKK (also: rhodamine label, site not given here) [rhodamine-labeled Pam3CSK4] ?
125
